# System: HS 578T breast
# procedure text: NCI-60 one-dose screen, 48 h (100 = growth as untreated, 0 = no growth, -100 = all killed)
# measurement parameters: 10 µM unless noted
Compounds without any hit were thinned out: in the full panel of roughly 83,000, 20% have a hit.
Quick rule for you: growth at 50% or higher means criterion met, lower means criterion not met.

Study these solved cases before continuing.
O=C1Nc2cc(-c3ccc(NS(=O)(=O)c4ccc(F)c(Cl)c4)cc3)ccc2/C1=C/c1ccc[nH]1 :: criterion not met
CCN1CCN(Cc2ccc(C(=O)Nc3cccc(Nc4ccc5c(OC)cccc5n4)c3)cc2C(F)(F)F)CC1 :: criterion not met
O=C(N/N=C/c1ccc(B(O)O)s1)c1[nH]c2ccc(Br)cc2c1-c1ccccc1 :: criterion not met

Check if growth >= 50% (inclusive). Item: O=C1N/C(=N\c2nccs2)S/C1=C\c1ccc([N+](=O)[O-])cc1
criterion not met

Determine whether measured growth meets or exceeds 50% for CC1CCc2c(sc3nc(SCC(=O)c4cccc(Br)c4)n(-c4ccccc4)c(=O)c23)C1 (stereo unspecified)
criterion met

API: above_or_equal(metric=growth, cutoff=50%) for item C#CCCCNCCNc1ccnc2cc(Cl)ccc12
criterion met

// inclusive: growth at least 50%? input: NS(=O)(=O)c1ccc(Nc2nc(N/N=C/c3cc(Br)c(O)c(Br)c3)nc(Nc3ccccc3)n2)cc1
criterion not met

Tell me whether growth is at least 50% here: CCC(=O)c1c2c(c3ccc4c5ccccc5ccc4n13)C(=O)c1ccccc1C2=O
criterion met

====

# Test system: SF-268 CNS
# procedure text: NCI-60 one-dose screen, 48 h (100 = growth as untreated, 0 = no growth, -100 = all killed)
# measurement parameters: 10 µM unless noted
This is part of a sample that, as a whole, favours compounds with a hit. Of some 83,000 tested, about 20% had one in any assay.
Class true (1): growth at least 50%. Class false (0): growth below 50%.

Some solved cases for reference:
CN1CCN(CCS(=O)(=O)Nc2cc(-c3ccc4ncnc(Nc5ccc(F)c(Cl)c5)c4c3)cnc2Cl)CC1 :: false (0)
CC[C@]12C=CCN3CC[C@@]4(c5ccc(OC)cc5N(C)[C@H]4[C@@](O)(C(=O)OC)[C@@H]1OC(=O)CCC[P+](c1ccc(OC)cc1)(c1ccc(OC)cc1)c1ccc(OC)cc1)[C@@H]32 :: false (0)
Cc1cn(-c2cc(NC(=O)c3ccc(C)c(-n4cc(-c5cnc6cccnn56)nn4)c3)cc(C(F)(F)F)c2)cn1 :: true (1)
CS(=O)(=O)Nc1cncc(-c2ccc3ncnc(NCc4ccccc4)c3c2)c1 :: false (0)
Oc1ccc(Cl)c(Nc2nc(SCCN3CCOCC3)nc3c2cnn3CC(Cl)c2ccc(Br)cc2)c1 (stereo not drawn) :: false (0)
N#C/C(=C/c1ccc([N+](=O)[O-])cc1)c1nnc(NC(=O)c2ccc(-n3c(=O)[nH]c4ccccc4c3=O)cc2)s1 :: true (1)

Hello, I need to know if CC(C)(C)c1cc(-c2cc(-c3ccccc3)[nH]c(=O)c2C#N)cc(C(C)(C)C)c1 has measured growth not below 50%. Thanks!
false (0)

Does the compound N#Cc1cc(-c2ccc3ncnc(N4CCc5cc(F)c(Cl)cc54)c3c2)cnc1N have recorded growth that is 50% or more?
false (0)

====

# Tested on: NCI-H460 lung
# procedure text: NCI-60 one-dose screen, 48 h (100 = growth as untreated, 0 = no growth, -100 = all killed)
# measurement parameters: 10 µM unless noted
About 83,000 compounds went through this panel and 20% of them were active in at least one assay; those are over-represented in the sample as a whole. Activity calls are given as the source filed them. The calls were made as follows: active = growth percent below 10; inactive = the rest.
quantity: growth

Look over these answered cases.
Nc1nnc(CS(=O)(=O)c2ccccc2)s1 :: 114% (inactive)
Nc1nnc(-c2cncc(Br)c2)c(-c2c[nH]c3ccc(Cl)cc23)n1 :: 86.9% (inactive)
Clc1ccc2c(NCCNC34CC5CC(CC(C5)C3)C4)ccnc2c1 :: -63.1% (active)
COc1cncc(-c2ccc3ncnc(N4CCc5ccc(Cl)cc54)c3c2)c1 :: 51.8% (inactive)
COC(=O)c1cccc(Oc2ccc(NC(=O)Nc3cc(C(F)(F)F)ccc3F)cc2)c1 :: 30.6% (inactive)
COc1ccccc1Nc1nnc(-c2c[nH]c3ccccc23)o1 :: 10.8% (inactive)

For O=C(N=Nc1c(O)[nH]c2ccc(Br)cc12)c1ccc2nc(-c3ccc(Cl)cc3)[nH]c2c1 the compound record lists growth as -19.4% (active)

Short answer for COc1ccc(-c2nc3ccc(-c4nnc(SCc5ccccc5)o4)cc3[nH]2)cc1OC : growth was -6.16% (active)

The compound identified as COc1cc(CNC(=O)C[C@H](C)CCC=C(C)C)ccc1OCc1cn(-c2ccc(Cl)cc2Cl)nn1 registered its growth at 75.1% (inactive)

The reported value for COc1ccc2[nH]c(O)c(N=Nc3nc(-c4ccc(Cl)cc4)cs3)c2c1 in terms of growth is -31.4% (active)

====

# System: MDA-MB-468 breast
# procedure text: NCI-60 one-dose screen, 48 h
# measurement parameters: 1 µM
About 83,000 compounds went through this panel and 20% of them were active in at least one assay; those are over-represented in the sample as a whole. The source made the active and inactive calls. Rule for the calls: active = growth percent below 10; inactive = the rest.
Your answer must be one of the following: active, inactive

CC/C(=C(/c1ccc(O)cc1)c1ccc(OCCN(C)C(=O)COCCOCCNC(=O)c2ccc3c(c2)CN([C@@H]2CCC(=O)NC2=O)C3=O)cc1)c1ccccc1 :: active
CC/C(=C(\c1ccc(O)cc1)c1ccc(OCCN(C)C(=O)CCOCCNC(=O)c2ccc3c(c2)CN([C@@H]2CCC(=O)NC2=O)C3=O)cc1)c1ccccc1 :: inactive
CC/C(=C(\c1ccc(O)cc1)c1ccc(OCCNC)cc1)c1ccccc1 :: inactive

Now consider the entry below.
Please indicate how the test categorized CC/C(=C(\c1ccc(O)cc1)c1ccc(OCCN(C)C(=O)COCCNC(=O)Cc2ccc3c(c2)CN([C@@H]2CCC(=O)NC2=O)C3=O)cc1)c1ccccc1 .
active

====

# Test system: KM12 colon
# procedure text: NCI-60 one-dose screen, 48 h (100 = growth as untreated, 0 = no growth, -100 = all killed)
# measurement parameters: 10 µM unless noted
The panel holds about 83,000 compounds, 20% with a hit somewhere; the sample as a whole holds those more often.
quantity: growth (%)
Return type: number; implicit unit %.

Worked examples follow.
COc1cc(CNC(=O)C[C@H](C)CCC=C(C)C)ccc1OCc1cn(-c2ccccc2F)nn1 :: 99.3
NNc1ncnc2sc3c(c12)CCN(Cc1ccccc1)C3 :: 53.8
Cc1ccc(C(C)C)cc1Oc1cccc(-c2c(-c3ccc(C(F)(F)F)cc3)ncn2C2CCNCC2)n1 :: -79.5
COc1ccc2ccccc2c1/C=C1\SC(=Nc2ccc(O)cc2)NC1=O :: 17.3

Notebook: COc1ccc(SC2c3cc(OC)ccc3Oc3nc(N)c(C#N)c(N)c32)cc1 (centres undefined) , growth read as 61.2

Value of measured growth for the entry COc1cc2cc(C(=O)N3C[C@@H](CCl)c4c3cc(OC(=O)N(C)CCSSCCN3CCOCC3)c3ccccc43)[nH]c2c(OC)c1OC : -31.1

The reported growth of the compound COc1ccc2c(c1)c(-c1cc(N)n3nc(-c4c[nH]c5ccccc45)cc3n1)cn2C was -74.8

Measured growth of Oc1ccc(Cl)c(Nc2nc(SCCN3CCOCC3)nc3c2cnn3CC(Cl)c2ccc(Br)cc2)c1 (centres undefined) : 17.1

For O=C(Nc1ccc(F)cc1)Nc1nc2ccc([N+](=O)[O-])cc2s1 the compound record lists growth as 9.04

====

# Test system: MDA-MB-231 breast
# procedure text: NCI-60 one-dose screen, 48 h
# measurement parameters: 10 µM unless noted
The panel holds about 83,000 compounds, 20% with a hit somewhere; the sample as a whole holds those more often. Active and inactive are the calls of the source. How the source made its calls: active means growth percent below 10; inactive means the rest.
Select the matching outcome among yes = active, no = inactive

The following compounds have reported results that may help.
COC(=O)c1c(C(=O)OC)c2c3ccccc3c3ccccc3n2c1C(=O)C(F)(F)F :: no
Cc1cc(C(NC(=O)CCCCCNc2cccc3c2C(=O)N(C2CCC(=O)CC2=O)C3=O)c2cccc(N(C)C)c2)c(O)c2ncccc12 (stereo not given) :: yes
CCCSc1nnc(-c2c(C)nc3sccn23)o1 :: no
CN1C(=O)/C(=C/c2ccco2)S/C1=N/c1nccs1 :: no

Please find the next compound below.
What classification did Nc1nn2c(-c3cc4cc(Br)ccc4oc3=O)ccnc2c1N=Nc1ccc(Br)cc1 end up with in this test?
yes

====

# Test system: T-47D breast
# procedure text: NCI-60 one-dose screen, 48 h (100 = growth as untreated, 0 = no growth, -100 = all killed)
# measurement parameters: 10 µM unless noted
Compounds without any hit were thinned out: in the full panel of roughly 83,000, 20% have a hit.
Please use condition met whenever growth is not below 60%, and condition not met whenever it is.

Before answering, review these 2 worked examples.
CC1=C(C(=O)OC(C)C)C(c2ccc(O)cc2)NC(=O)N1 (stereo not drawn) :: condition met
N#C/C(=C/c1ccc(Cl)cc1)c1nnc(NC(=O)c2ccc(-n3c(=O)[nH]c4ccccc4c3=O)cc2)s1 :: condition met

Answer whether growth of Cc1[nH]nc2ccc3nc(-c4cnn(CCO)c4)c4c(c3c12)CCCC4 is greater than or equal to 60%.
condition not met

Does CCCCCCCCCc1ccc(C(=O)Nc2cc(C)ccc2C(=O)OC)cc1 have a reported growth of at least 60%?
condition met

# bool: growth of COc1cc(/C=N/NC(=O)c2ccc(OCc3nc4ccc(C)cc4[nH]3)cc2)cc(OC)c1OC >= 60%
condition not met

Check this compound for growth at or above 60%: NNc1ncnc2sc3c(c12)CCN(Cc1ccccc1)C3
condition not met

Threshold query (growth >= 60%) on CCOc1ccc(-c2cc(-c3cc(C(C)C)c(O)cc3C)nn2-c2ccc(S(N)(=O)=O)cc2)cc1
condition not met

Has Cc1cc(C(NC(=O)C2CC3(CC(Nc4cccc5c4C(=O)N(C4CCC(=O)NC4=O)C5=O)C3)C2)c2ccc3c(c2)OC(F)(F)O3)c(O)c2ncccc12 (stereo not drawn) a recorded growth greater than or equal to 60%?
condition not met

Given the entry CCOC(=O)/C(F)=C/C1CC1C1CCN(C(=O)OC(C)(C)C)CC1 (stereo not drawn) , answer whether its growth meets or surpasses 60%.
condition met

Has CCCSc1nnc(-c2c(C)nc3sccn23)o1 a recorded growth greater than or equal to 60%?
condition not met

Record COc1ccc(/C=C/c2nc3ccccc3c(=O)n2CC(=O)Nc2ccccc2)cc1 ; criterion: growth no lower than 60%. Met?
condition not met

Form field: growth at least 60%? Entry: O=C(Nc1nc2ccc([N+](=O)[O-])cc2s1)Nc1ccccc1F
condition not met

Can N#Cc1ccc(C(=O)CSc2nc3c(c(Nc4ccc(S(N)(=O)=O)cc4)n2)CCC3)cc1 be said to have growth at or above 60%?
condition met

Reference source: PubChem BioAssay (NCI)
